- Experimental target: human Keap1 Kelch domain (Homo sapiens)
- Construct: human Keap1 Kelch domain (residue 321-609, UniProt Q14145); made in house; host or cells: Escherichia coli BL21 (DE3) pLysS, pRSET A vector
- Sequence (Q14145 321-609): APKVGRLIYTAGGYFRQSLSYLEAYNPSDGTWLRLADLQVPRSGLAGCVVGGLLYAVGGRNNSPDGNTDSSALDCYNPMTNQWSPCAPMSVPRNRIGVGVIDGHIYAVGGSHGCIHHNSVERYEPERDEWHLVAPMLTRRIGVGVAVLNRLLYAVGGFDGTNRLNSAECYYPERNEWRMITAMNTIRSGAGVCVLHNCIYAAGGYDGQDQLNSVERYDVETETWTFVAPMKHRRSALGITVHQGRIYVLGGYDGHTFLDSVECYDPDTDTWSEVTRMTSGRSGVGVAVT
- Assay overview: Fluorescence polarization (FP) competition assay, Cy5-Nrf2 peptide probe
- Assay type: binding
- Cond: heterologous competition FP; Keap1 Kelch 14 nM, Cy5-Nrf2 probe 3 nM, 4% DMSO; mean ± SEM
Parameter measured: log10(Ki) (log10 of the value in µM)
Please keep in mind that the values are log10 of Ki expressed in µM.

Compound: Cc1ccc(Cl)cc1C(CC(=O)O)c1ccc2ccc(OCC(=O)NC3C=CCCC3)cc2c1 (centres unmarked)
Recorded value: -1.32

Compound: CC(C)(C(=O)O)C(c1ccc2c(c1)OCO2)c1ccc2ccc(OCC(=O)NC3CCCCCC3)cc2c1 (centres unmarked)
Recorded value: -2.52

Compound: Cc1cc2c(cc1C(CC(=O)O)c1ccc3ccc(OCC(=O)N[C@H]4C[C@@H]5CC[C@H]4C5)cc3c1)OCO2 (some centres unmarked)
Recorded value: -2.15

Batch: log10(Ki) for all items listed.
1. O=C(O)CC(c1ccc2c(c1)OC(F)(F)O2)c1ccc2ccc(OCC(=O)NC3CCCCCC3)cc2c1 (centres unmarked)
2. CCOc1ccc(C(CC(=O)O)c2ccc3ccc(OCC(=O)NC4CCCCCC4)cc3c2)cc1 (centres unmarked)
3. O=C(O)CC(c1ccc2c(c1)OCO2)c1ccc2ccc(OCC(=O)N[C@H]3C[C@@H]4CC[C@H]3C4)cc2c1 (some centres unmarked)
4. Cc1cc(C)c(NC(=O)COc2ccc3ccc(CCC(=O)O)cc3c2)c(C)c1

[-1.47, -1.39, -1.70, 1.34]

Sure, the documented log10(Ki) for Cc1cc2c(cc1C(CC(=O)O)c1ccc3ccc(OCC(=O)NC4C=CCCC4)cc3c1)CCO2 (centres unmarked) is -1.74
